Assay: gradient 5% acetonitrile 3 min, to 50% in 2 min, to 85% in 15 min, held 3 min, 100 µL/min
Conditions: column: Zorbax Extend-C18 2.1 x 50 mm; eluents: water / acetonitrile, 0.1% formic acid
RP-LC retention time listing for selected molecules.
Just the number in s, nothing appended.

Below, 2 molecules whose answers are already recorded.
Cc1ccc2c(Nc3ccc(Br)cc3)c(C(=O)N3CCOCC3)cnc2n1    608
COc1ccc(Cl)cc1NS(=O)(=O)c1cn(C(C)C)c2ncccc12    972

Query string: What measured RP-LC retention time goes with CNC(=O)CN(C)C(=O)c1cc2c(s1)N(C)CCCC2 ?
Result string: 686

Query string: What do we get for CCCNC(=O)C1CCN(c2ccc(SCC(=O)Nc3ccc(Cl)cc3)nn2)CC1 ?
Result string: 655

Query string: Another molecule: Cc1cccc(NC(=O)N2CCC(N3CCN(Cc4ccccn4)C(=O)C3=O)CC2)c1
Result string: 610

Query string: Proceed to CCCN1C(=O)COc2ccc(-c3noc(-c4ccc(OCC)cc4)n3)cc21
Result string: 1320

Query string: What do you get for O=C(c1ccc(=O)n(CCN2CCCC2)c1)N1CCN(c2ccccc2F)CC1 ?
Result string: 619

Query string: Same question for Cc1cc(C(=O)N2CCN(c3ccccn3)CC2)nc2ccnn12 please.
Result string: 556

Value source: the METLIN SMRT retention time set (Domingo-Almenara et al. 2019)
